Consider the following molecules; for each one, report its MIC.
Tested on: Staphylococcus aureus
Experiment: Antibacterial activity against mecA-positive multidrug resistant Staphylococcus aureus NRS120 incubated for 16 to 20 hrs by microdilution method
Assay type: functional
Numbers only, in µg/mL.

Worked examples follow.
MOLECULE	MIC [µg/mL]
CC(=O)NC[C@H]1CN(c2ccc(N3CCOCC3)c(F)c2)C(=O)O1 [LINEZOLID]	32
C#Cc1ccc(/C=C/c2nc3ccccc3c(=O)n2-c2cccc(C(=O)O)c2)cc1	0.5
N#Cc1ccc(/C=C/c2nc3ccccc3c(=O)n2-c2cccc(N)c2)cc1	4
N#Cc1ccc(/C=C/c2nc3ccccc3c(=O)n2-c2cccc(C(=O)O)c2)cc1	8
N#Cc1ccc(/C=C/c2nc3ccccc3c(=O)n2-c2cccc(O)c2)cc1	0.125
O=C(O)c1cccc(-n2c(/C=C/c3ccc(F)cc3)nc3ccccc3c2=O)c1	8

In the following, a different molecule is considered.
Exercise: For the molecule CS(=O)(=O)Nc1cccc(-n2c(/C=C/c3ccc(C#N)cc3)nc3ccccc3c2=O)c1 , what MIC is on record?
Solution: 0.25

###

Consider the following compounds; for each one, report its concentration at 7 h.
Test: Plasma concentration in ICR mouse neutropenic thigh model of methicillin-resistant Staphylococcus aureus NRS70 infection at 20 mg/kg, sc tid administered every 8 hrs starting from 1 hr post infection and measured 7 hrs post last dose by UPLC analysis
Assay type: ADME, organism-based

C#Cc1ccc(/C=C/c2nc3ccccc3c(=O)n2-c2cccc(C(=O)[O-])c2)cc1.[Na+] 2430 ng/mL

Exercise: For the compound N#Cc1ccc(/C=C/c2nc3ccccc3c(=O)n2-c2cccc(C(=O)O)c2)cc1 , what concentration at 7 h is on record?
Solution: 1130 ng/mL

###

Test: Terminal half life in ICR mouse peritonitis model infected with methicillin resistant Staphylococcus aureus ATCC 27660 at 10 mg/kg, po administered as single dose through gavage by UPLC analysis
Type: ADME, organism-based
Conditions: ICR, in vivo, read-out: beta t1/2
RESULT_TYPE: half-life

Exercise: For the compound N#Cc1ccc(/C=C/c2nc3ccccc3c(=O)n2-c2cccc(C(=O)O)c2)cc1 , what half-life is on record?
Solution: > 20 h

###

Test: AUC (0 to last) in ICR mouse peritonitis model infected with methicillin resistant Staphylococcus aureus ATCC 27660 at 10 mg/kg, iv administered as single dose measured up to 8 hrs by UPLC analysis
Assay type: ADME, organism-based
Set-up: dose 10 mg/kg, time 0 - last, route intravenous
Conditions: ICR, in vivo
RESULT_TYPE: AUC(0-t) at 8 h (µg·h/mL)
Numbers only, in µg·h/mL.

Exercise: For the compound N#Cc1ccc(/C=C/c2nc3ccccc3c(=O)n2-c2cccc(C(=O)O)c2)cc1 , what AUC(0-t) at 8 h is on record?
Solution: 19.7

###

Experiment: AUC (0 to last) in ICR mouse peritonitis model infected with methicillin resistant Staphylococcus aureus ATCC 27660 at 10 mg/kg, po administered as single dose through gavage measured after 30 hrs by UPLC analysis
Assay type: ADME, organism-based
Design: dose 10 mg/kg, time 0 - last, route oral
Details: ICR, in vivo
RESULT_TYPE: AUC(0-t) at 30 h (ng·h/mL)
Give bare numbers, in ng·h/mL.

Exercise: For the compound N#Cc1ccc(/C=C/c2nc3ccccc3c(=O)n2-c2cccc(C(=O)O)c2)cc1 , what AUC(0-t) at 30 h is on record?
Solution: 6800

Source listed as ChEMBL document CHEMBL3817745.
